experiment: Study 1: single-escalating oral dose pharmacokinetics in healthy adult subjects; assay type: in vivo, human; details: human, plasma; single oral dose 150 mg, fasted state; range; read-out: Tmax, range
ASSAY_READOUT: Tmax

Prompt: Quick one: give measured Tmax for `CCC(CC)c1cc(C)nc2c(-c3sc(N4CCOCC4)nc3Cl)c(C)nn12`
Response: 6 to 12 h

###

experiment: Study 1: single-escalating oral dose pharmacokinetics in healthy adult subjects; format: in vivo, human; conditions: human, plasma; single PO dose, fed and fasted state; overall range; read-out: half-life (t1/2), range
ASSAY_READOUT: half-life

Prompt: Supply half-life value. Item: `CCC(CC)c1cc(C)nc2c(-c3sc(N4CCOCC4)nc3Cl)c(C)nn12`
Response: 11 to 101 h

meta.source: patent US20210137935A1
